Assay: Toxicity in BALB/c mouse assessed as survival rate at 10 to 50 mg/kg, ip administered as single dose and measured for 7 consecutive days
Assay type: organism-based
Details: in vivo, dose 10-50 mg/kg, time 7 day
reported property: survival at 168 h
// return the numeric value with its unit appended

{"entry smiles": "C=CCc1cccc(Oc2ccc(C(=O)CC)cc2)c1OCCC[N+](C)(C)CC(=O)NCCCCCC.[Br-]", "result": "100%"}

// below: survival at 168 h requested for another compound
Task item: survival at 168 h lookup needed for C=CCc1cccc(Oc2ccc(C(=O)CC)cc2)c1OCC[N+](C)(C)CC(=O)NCCCCCC.[Br-] , thanks.
Reply: 100%
